Where do the numbers come from? From PubChem BioAssay AID488890.

- TEST SUMMARY: growth inhibition of non-replicating M. tuberculosis (AID 488890);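 further: plate controls were DMSO cells for no effect and high antibiotic wells for full effect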
- PROTOCOL CONDITIONS: Mycobacterium tuberculosis non-replicating, at 25 µM, stronger effect = higher value
Screen size: about 320,000 compounds; about 1,300 (0.41%) were called active. Another 3% or so got no clear call; they are omitted. Not all results are given here. Results with a measured potency or affinity are listed apart.
MEASURE: inhibition (%)
Note: unit % is implicit; provide only the numeric part.

Below, 5 compounds whose answers are already recorded.
CC(=O)NCCc1nc2ccccc2n1Cc1ccc(Cl)cc1 = 0.72
O=C(Cn1cncn1)c1ccc(Cl)cc1 = -4.45
CC(=O)NCCCc1nc2ccccc2n1Cc1ccc(C)cc1 = 1.78
COc1ccc(OC)c(/C=C/C(=O)OCC(=O)NCc2cccs2)c1 = 22.8
Cc1ccc(Cn2c(NS(=O)(=O)c3ccccc3)nc3ccccc32)cc1 = -3.28

Would you kindly look at the next entry?
Report inhibition for "O=C(Nc1nc2ccccc2n1Cc1ccc(Cl)cc1)c1ccco1" please.
-7.17

----------
- TEST SUMMARY: growth inhibition of non-replicating M. tuberculosis (AID 488890)
- PROTOCOL CONDITIONS: Mycobacterium tuberculosis non-replicating, at 25 µM, stronger effect = higher value
Hit rate of the full screen: of about 320,000 compounds, about 1,300 (0.41%) were called active. About 3% were inconclusive and are not listed. A selection follows. Measured potencies and affinities stand elsewhere.
Binary call on inhibition: label 1 from 20% upward, label 0 beneath that.

CCc1ccc(OCC(=O)N/N=C(\C)c2ccc(O)cc2O)cc1 = label 1
N#CC(C#N)=C1NC2(CCCCC2)Cc2ccccc21 = label 0
N#Cc1ccc(-c2ccc(F)cc2)nc1Oc1ccccc1 = label 0
Cn1cc(C(=O)C(=O)N2CCCC2)c2ccccc21 = label 0
Oc1ccc(Cl)cc1C1=NNC(c2cc(Br)cc3c2OCOC3)C1 (configuration not stated) = label 1
CCCCCC(=O)c1ccc(O)cc1O = label 1
O=C(Nc1cccc(Cl)c1)c1nc[nH]c1C(=O)NCc1ccccc1 = label 1
Cc1cc(NC(=O)/C=C/c2ccccc2)no1 = label 0

Entry "C/C(=N\NC(=O)c1cccnc1)c1c(O)cc(C)oc1=O" : is its inhibition no less than 20%?
label 0

Entry "COc1ccccc1CNC(=O)COc1ccccc1C" : is its inhibition no less than 20%?
label 0

Entry "CCCCCCCCC(=O)N/N=C(\C)c1ccco1" : is its inhibition no less than 20%?
label 0

Entry "CN(Cc1ccccc1)C(=O)c1ccc(NC(=O)c2ccccc2)cc1" : is its inhibition no less than 20%?
label 0

----------
- TEST SUMMARY: growth inhibition of non-replicating M. tuberculosis (AID 488890);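 further: plate controls were DMSO cells for no effect and high antibiotic wells for full effect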
- PROTOCOL CONDITIONS: Mycobacterium tuberculosis non-replicating, at 25 µM, stronger effect = higher value
Screen size: about 320,000 compounds; about 1,300 (0.41%) were called active. About 3% were inconclusive and are not listed. These entries were drawn from the full list. Measured potencies and affinities stand elsewhere.
Each entry below carries its recorded inhibition.
Note: unit % is implicit; provide only the numeric part.

CC(C)NC(=O)CCn1nc(-c2ccc(Cl)cc2)c2ccccc2c1=O = 10
Cc1ccc(S(=O)(=O)N2CCC(=O)N(C(CO)C(C)C)CC2)cc1 (configuration not stated) = -0.84
COc1ccc(CCNC(=O)CCCc2ccccc2)cc1OC = 26.3
CCN1CCN(C(=O)/C(=C/c2ccco2)NC(=O)c2ccccc2)CC1 = -2.48
O=C(COc1ccc(/C=N/NC(=O)C(=O)N2CCCCCC2)cc1)Nc1ccccc1Cl = 74.1

Report inhibition for "CC(C)[C@@H](C(=O)NC1CC1)N1C(=O)N2CCc3c([nH]c4ccccc34)[C@@]2(C)C1=O" please.
21

Report inhibition for "O=C(NC(NNc1ccc([N+](=O)[O-])cc1)(C(F)(F)F)C(F)(F)F)c1ccc(F)cc1" please.
29.8

Report inhibition for "CC(=O)Nc1ccc(S(=O)(=O)NCCc2csc(C)n2)cc1" please.
-0.23

Report inhibition for CC(C)(C)c1ccc(-n2ncc3c2CCCC3NC(=O)CCN2CCCO2)cc1 (configuration not stated) please.
19.6

Report inhibition for Cc1cccnc1NC(=O)c1ccc2c(c1)NC(=O)C(C)S2 (configuration not stated) please.
-14.1

Report inhibition for "O=C(CNC(=O)c1cccs1)NCC(=O)OCc1ccccc1Br" please.
20.5

Report inhibition for "O=C(O)CNC(=S)N(Cc1ccccc1)Cc1cccnc1" please.
6.66

Report inhibition for CC1CCC(NS(=O)(=O)c2cccc3nsnc23)CC1 (configuration not stated) please.
0.44

Report inhibition for "CCC(CC)c1nnc(NC(=O)CS(=O)(=O)c2ccccc2)s1" please.
-1.72

Report inhibition for "COc1ccc(-c2csc(C3=C(O)CN(CCCN4CCCC4=O)C3=N)n2)cc1OC" please.
2.8

Report inhibition for "CCc1ccc(NS(=O)(=O)c2cc3c4c(c2)CCN4C(=O)CC3)cc1" please.
1.05

Report inhibition for "O=C(CN1C(=O)NC2(CCCCC2)C1=O)N1CCN(c2ncccn2)CC1" please.
3.11

Report inhibition for CC1CCC2C(=O)N(c3cccc(C(=O)Nc4ccc(F)cc4)c3)C(=O)C2C1 (configuration not stated) please.
0.0133

Report inhibition for "CN(CC(=O)Nc1ccccc1N1CCOCC1)CC(=O)Nc1ccc(F)c(F)c1F" please.
7.73

Report inhibition for "Cc1c(Cl)cccc1NC(=O)CSc1nncn1-c1cccnc1" please.
2.49

Report inhibition for Cc1ccc(S(=O)(=O)N2CCOC2CNC(=O)C(=O)NCCN(C)C)cc1 (configuration not stated) please.
-4.76

Report inhibition for "Cc1ccc(OCCC(=O)OCC(=O)NCc2ccccc2)cc1" please.
30.8

----------
Each entry below carries its recorded inhibition.
- TEST SUMMARY: growth inhibition of non-replicating M. tuberculosis (AID 488890);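 further: plate controls were DMSO cells for no effect and high antibiotic wells for full effect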
- PROTOCOL CONDITIONS: Mycobacterium tuberculosis non-replicating, at 25 µM, stronger effect = higher value
Screen size: about 320,000 compounds; about 1,300 (0.41%) were called active. Roughly 3% stayed inconclusive and do not appear here. These entries were drawn from the full list. Results with a measured potency or affinity are listed apart.
Note: unit % is implicit; provide only the numeric part.

O=C(OCC(=O)N1CCN(c2ccccc2)CC1)c1ccc(Cl)nc1 = 60.4
O=C(Nc1nc(-c2ccncc2)cs1)c1ccco1 = -9.61
O=C1OCC(CO)(CO)N=C1NNc1ccccc1[N+](=O)[O-] = 4.31
N#Cc1ccc(COC(=O)c2ccccn2)cc1 = 55.2
COC(=O)c1ccc(OC(=O)c2ccccn2)cc1 = 42
COc1ccc([N+](=O)[O-])cc1N(CC(O)CN1C(=O)NC(C)(C)C1=O)S(=O)(=O)c1ccccc1 (stereo not drawn) = -14.2
O=C(OCc1c(Cl)cccc1Cl)c1cccnc1Cl = 33.3
O=C(CCS(=O)(=O)c1ccccc1)Nc1nc(-c2cccs2)cs1 = 75.7

Report inhibition for "Cc1ccc(NC(=O)C2(S(=O)(=O)c3ccc(C)cc3)CC2)cc1" please.
7.01

Report inhibition for "CC(=O)Oc1ccc(S(=O)(=O)c2ccc(OC(C)=O)cc2)cc1" please.
-5.93

Report inhibition for "CCOC(=O)c1cc(-c2cccc([N+](=O)[O-])c2)n[nH]1" please.
-6.3

Report inhibition for "Cc1cccc(Nc2nc(-c3ccc(F)cc3)cs2)n1" please.
18.9

Report inhibition for "O=C(OCc1ccc(Cl)c(Cl)c1)c1cnccn1" please.
4.21

Report inhibition for "O=C(c1ccccc1NS(=O)(=O)c1cccs1)N1CCOCC1" please.
6.22

Report inhibition for CCOc1ccc(/C=N/NC(=S)NC2CC3CC2C2C=CCC32)cc1 (stereo not drawn) please.
-7.06

Report inhibition for "CCOC(=O)N1CCN(S(=O)(=O)c2ccc(C(=O)N(CCCN(C)C)c3nc4ccc(OC)cc4s3)cc2)CC1" please.
3.45

Report inhibition for "COC(=O)/C(=C1/Oc2ccc(C(C)(C)C)cc2S1)C(F)(F)F" please.
32.3

----------
- TEST SUMMARY: growth inhibition of non-replicating M. tuberculosis (AID 488890);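 further: plate controls were DMSO cells for no effect and high antibiotic wells for full effect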
- PROTOCOL CONDITIONS: Mycobacterium tuberculosis non-replicating, at 25 µM, stronger effect = higher value
Screen size: about 320,000 compounds; about 1,300 (0.41%) were called active. Inconclusive results (about 3%) are left out. A selection follows. Results with a measured potency or affinity are listed apart.
Each entry below carries its recorded inhibition.
Note: unit % is implicit; provide only the numeric part.

CCCC(=O)c1cc2c(cc1NC(=O)c1ccccc1F)OCCO2 = 4.71
O=C(COc1ccc(Cl)cc1Br)Nc1ccncc1 = 69.3

Report inhibition for "Cc1cc(Br)ccc1OCC(=O)NNC(=O)CCc1ccccc1" please.
29

Report inhibition for "COc1ccc(-c2nnc(Nc3nc4c(OC)cccc4s3)o2)c(OC)c1" please.
60.8

Report inhibition for CCOC(=O)C1=C(C)Nc2sc(C(=O)c3ccc(OC)cc3)c(N)c2C1c1ccc(C(=O)OC)cc1 (stereo unspecified) please.
26.4
